The reported measurements were obtained from patent US8609661B2.

Biological target: human wildtype CFTR (Homo sapiens)
Construct: expressed in transfected cells; host or cells: Fischer rat thyroid (FRT) cells
Assay: Fluorescence platereader assay of CFTR-mediated iodide influx (YFP quenching) in FRT cells
Assay type: cell-based
Conditions: FRT; Table 2; screening, 5 μM; read-out: % Inhibition at 5 μM
Experimental: A. Cell lines and compounds—Fischer rat thyroid (FRT) cells co-expressing human wildtype CFTR and the halide indicator YFP-H148Q/1152L were generated as described (see, e.g., Ma et al., J. Clin. Invest. 110:1651-1658 (2002)). […] B. Compound Screening—Assays were performed using an automated screening platform (Beckman) equipped with FLUOStar fluorescence platereaders (BMG Lab Technologies, Offenburg, Germany) as described (see Ma et al., supra). […]
Measured inhibition at 5 µM, listed per entry for reference.
QUANTITY: inhibition at 5 µM (%)

- Cc1cc2c(cc1C)-n1c(-c3ccccc3F)c3c(=O)n(C)c(=O)n(C)c3c1C(c1ccco1)N2 (stereo not shown): 41
- Cn1c(=O)c2c(-c3ccccc3F)n3c(c2n(C)c1=O)C(c1ccc(F)cc1)Nc1ccccc1-3 (stereo not shown): 28
- Cn1c(=O)c2c(-c3ccccc3)n3c(c2n(C)c1=O)C(c1cccs1)Nc1ccccc1-3 (stereo not shown): 34
- Cn1c(=O)c2c(-c3ccccc3)n3c(c2n(C)c1=O)C(c1ccc(F)cc1)Nc1ccccc1-3 (stereo not shown): 21
- COc1cccc(C2Nc3ccccc3-n3c(-c4ccccc4)c4c(=O)n(C)c(=O)n(C)c4c32)c1 (stereo not shown): 63
- Cn1c(=O)c2c(-c3ccccc3)n3c(c2n(C)c1=O)C(c1ccco1)Nc1ccccc1-3 (stereo not shown): 11
- Cc1cc2c(cc1C)-n1c(-c3ccccc3)c3c(=O)n(C)c(=O)n(C)c3c1C(c1ccc(O)c(O)c1)N2 (stereo not shown): 24
- Cc1ccccc1-c1c2c(=O)n(C)c(=O)n(C)c2c2n1-c1ccccc1NC2c1ccco1 (stereo not shown): 18
- Cn1c(=O)c2c(-c3ccccc3F)n3c(c2n(C)c1=O)C(c1cccc(Cl)c1)Nc1ccccc1-3 (stereo not shown): 70
- COc1cccc(C2Nc3ccccc3-n3c(-c4ccccc4F)c4c(=O)n(C)c(=O)n(C)c4c32)c1 (stereo not shown): 62
- Cc1ccccc1-c1c2c(=O)n(C)c(=O)n(C)c2c2n1-c1ccccc1NC2c1cccc(F)c1F (stereo not shown): 50

###

Target: human wildtype CFTR (Homo sapiens, UniProt P13569)
Construct: expressed in transfected cells; host or cells: Fischer rat thyroid (FRT) cells
Sequence (P13569 whole entry): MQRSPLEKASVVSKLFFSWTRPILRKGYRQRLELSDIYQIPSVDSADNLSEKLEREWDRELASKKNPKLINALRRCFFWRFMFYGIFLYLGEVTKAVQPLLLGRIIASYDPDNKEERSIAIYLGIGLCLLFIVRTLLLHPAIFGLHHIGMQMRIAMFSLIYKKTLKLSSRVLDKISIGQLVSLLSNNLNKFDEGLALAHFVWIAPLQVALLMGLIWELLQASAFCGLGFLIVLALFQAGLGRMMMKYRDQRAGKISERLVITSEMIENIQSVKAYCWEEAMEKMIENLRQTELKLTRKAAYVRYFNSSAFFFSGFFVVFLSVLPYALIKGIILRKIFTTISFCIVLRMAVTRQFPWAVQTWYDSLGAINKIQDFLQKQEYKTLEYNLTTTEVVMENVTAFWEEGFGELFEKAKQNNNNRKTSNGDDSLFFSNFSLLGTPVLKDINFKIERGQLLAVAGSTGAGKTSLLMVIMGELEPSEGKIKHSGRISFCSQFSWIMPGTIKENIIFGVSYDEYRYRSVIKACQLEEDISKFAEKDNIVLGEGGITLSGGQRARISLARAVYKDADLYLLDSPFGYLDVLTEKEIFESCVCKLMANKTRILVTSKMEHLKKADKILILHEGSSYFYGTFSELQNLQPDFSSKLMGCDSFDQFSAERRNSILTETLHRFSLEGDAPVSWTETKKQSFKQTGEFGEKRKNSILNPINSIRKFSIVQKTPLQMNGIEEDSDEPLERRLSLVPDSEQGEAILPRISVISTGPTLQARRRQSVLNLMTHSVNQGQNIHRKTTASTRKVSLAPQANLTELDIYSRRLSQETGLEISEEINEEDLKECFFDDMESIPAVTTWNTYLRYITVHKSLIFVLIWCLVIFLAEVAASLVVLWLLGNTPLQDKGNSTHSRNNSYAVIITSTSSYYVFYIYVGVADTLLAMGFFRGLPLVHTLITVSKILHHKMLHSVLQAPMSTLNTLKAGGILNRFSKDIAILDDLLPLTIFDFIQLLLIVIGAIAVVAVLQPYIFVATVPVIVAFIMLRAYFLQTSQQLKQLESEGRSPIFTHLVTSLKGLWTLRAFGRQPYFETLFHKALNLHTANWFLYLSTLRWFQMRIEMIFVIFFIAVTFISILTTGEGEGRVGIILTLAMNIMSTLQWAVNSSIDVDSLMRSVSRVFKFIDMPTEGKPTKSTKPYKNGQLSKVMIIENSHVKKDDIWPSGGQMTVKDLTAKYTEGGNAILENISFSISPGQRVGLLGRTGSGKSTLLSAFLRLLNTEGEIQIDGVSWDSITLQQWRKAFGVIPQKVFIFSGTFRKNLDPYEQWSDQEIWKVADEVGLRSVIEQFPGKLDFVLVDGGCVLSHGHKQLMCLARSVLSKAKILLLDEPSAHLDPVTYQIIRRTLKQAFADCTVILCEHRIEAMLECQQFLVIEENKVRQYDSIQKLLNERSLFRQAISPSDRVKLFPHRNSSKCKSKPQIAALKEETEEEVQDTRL
Assay: Fluorescence platereader assay of CFTR-mediated iodide influx (YFP quenching) in FRT cells
Format: cell-based
Conditions: FRT; Table 2; screening, 5 μM; read-out: % Inhibition at 5 μM
QUANTITY: inhibition at 5 µM (%)

* Cn1c(=O)c2c(-c3ccccc3F)n3c(c2n(C)c1=O)C(c1ccc(F)cc1F)Nc1ccccc1-3 (stereo not shown) | 32
* Cc1cccc(-c2c3c(=O)n(C)c(=O)n(C)c3c3n2-c2ccccc2NC3c2cccc(O)c2)c1 (stereo not shown) | 30
* Cn1c(=O)c2c(-c3ccccc3)n3c(c2n(C)c1=O)C(c1ccc(O)cc1)Nc1ccccc1-3 (stereo not shown) | 64

###

Molecular target: human wildtype CFTR (Homo sapiens)
Construct: expressed in transfected cells; host or cells: Fischer rat thyroid (FRT) cells
Experiment: Fluorescence platereader assay of CFTR-mediated iodide influx (YFP quenching) in FRT cells
Type: cell-based
Conditions: FRT; Table 2; screening, 25 μM; read-out: % Inhibition at 25 μM
So basically: inhibition at 25 µM at 60% or higher? That is rule met. Lower than 60%? That is rule not met.

- COc1ccc(-c2c3c(=O)n(C)c(=O)n(C)c3c3n2-c2ccccc2NC3c2cccc(O)c2)cc1 (stereo not shown): rule not met
- Cc1ccc(-c2c3c(=O)n(C)c(=O)n(C)c3c3n2-c2ccccc2NC3c2ccc(C)o2)cc1 (stereo not shown) [PPQ-110]: rule not met
- Cn1c(=O)c2c(-c3ccccc3F)n3c(c2n(C)c1=O)C(c1cccc(F)c1)Nc1ccccc1-3 (stereo not shown) [PPQ-230]: rule met
- Cc1cccc(-c2c3c(=O)n(C)c(=O)n(C)c3c3n2-c2ccccc2NC3c2cccs2)c1 (stereo not shown) [PPQ-114]: rule met
- COc1cc(C2Nc3ccccc3-n3c(-c4ccccc4F)c4c(=O)n(C)c(=O)n(C)c4c32)ccc1O (stereo not shown) [PPQ-251]: rule met
- Cn1c(=O)c2c(-c3ccccc3)n3c(c2n(C)c1=O)C(c1ccc(F)cc1)Nc1ccccc1-3 (stereo not shown) [PPQ-249]: rule met
- Cc1cc2c(cc1C)-n1c(-c3ccccc3)c3c(=O)n(C)c(=O)n(C)c3c1C(c1cccc(O)c1O)N2 (stereo not shown) [PPQ-236]: rule met
- COc1cccc(C2Nc3ccccc3-n3c(-c4cccc(C)c4)c4c(=O)n(C)c(=O)n(C)c4c32)c1O (stereo not shown): rule not met
- Cn1c(=O)c2c(-c3ccccc3F)n3c(c2n(C)c1=O)C(c1ccc(F)cc1F)Nc1ccccc1-3 (stereo not shown) [PPQ-244]: rule not met
- COc1ccc(-c2c3c(=O)n(C)c(=O)n(C)c3c3n2-c2ccccc2NC3c2ccccc2)cc1 (stereo not shown): rule not met
- Cc1ccccc1-c1c2c(=O)n(C)c(=O)n(C)c2c2n1-c1ccccc1NC2c1ccc(O)c(O)c1 (stereo not shown): rule not met
- Cc1ccccc1-c1c2c(=O)n(C)c(=O)n(C)c2c2n1-c1ccccc1NC2c1ccc(C#N)cc1 (stereo not shown): rule not met
- Cc1cc2c(cc1C)-n1c(-c3ccccc3)c3c(=O)n(C)c(=O)n(C)c3c1C(c1ccc(O)cc1O)N2 (stereo not shown) [PPQ-235]: rule met
- Cc1ccc(C2Nc3ccccc3-n3c(-c4ccccc4C)c4c(=O)n(C)c(=O)n(C)c4c32)o1 (stereo not shown) [PPQ-103]: rule met
- Cc1ccc(C2Nc3cc(C)c(C)cc3-n3c(-c4ccccc4F)c4c(=O)n(C)c(=O)n(C)c4c32)o1 (stereo not shown) [PPQ-105]: rule met
- CCOc1ccccc1C1Nc2ccccc2-n2c(-c3cccc(C)c3)c3c(=O)n(C)c(=O)n(C)c3c21 (stereo not shown) [PPQ-231]: rule met

###

Measured inhibition at 5 µM, listed per entry for reference.
Target: human wildtype CFTR (Homo sapiens, UniProt P13569)
Construct: expressed in transfected cells; host or cells: Fischer rat thyroid (FRT) cells
Assay: Fluorescence platereader assay of CFTR-mediated iodide influx (YFP quenching) in FRT cells
Format: cell-based
Settings: FRT; Table 2; screening, 5 μM; read-out: % Inhibition at 5 μM
QUANTITY: inhibition at 5 µM (%)

* Cc1cc2c(cc1C)-n1c(-c3ccccc3)c3c(=O)n(C)c(=O)n(C)c3c1C(c1cccc(O)c1O)N2 (stereo not shown) | 14
* COc1cc(C2Nc3ccccc3-n3c(-c4ccccc4C)c4c(=O)n(C)c(=O)n(C)c4c32)ccc1O (stereo not shown) | 10
* Cc1ccccc1-c1c2c(=O)n(C)c(=O)n(C)c2c2n1-c1ccccc1NC2c1cccc(O)c1 (stereo not shown) | 15

###

Measured inhibition at 5 µM, listed per entry for reference.
Target: human wildtype CFTR (Homo sapiens, UniProt P13569)
Construct: expressed in transfected cells; host or cells: Fischer rat thyroid (FRT) cells
Assay: Fluorescence platereader assay of CFTR-mediated iodide influx (YFP quenching) in FRT cells
Format: cell-based
Conditions: FRT, read-out: % inhibition at 25/5 μM (5 μM value); Table 1; 5 μM compound
QUANTITY: inhibition at 5 µM (%)

• COc1cccc(C2Nc3ccccc3-n3c(-c4ccccc4)c4c(=O)n(C)c(=O)n(C)c4c32)c1 (centres unmarked) [PPQ-204] = 63
• Cc1cccc(-c2c3c(=O)n(C)c(=O)n(C)c3c3n2-c2ccccc2NC3c2ccccc2F)c1 (centres unmarked) [PPQ-215] = 67
• Cn1c(=O)c2c(-c3ccccc3)n3c(c2n(C)c1=O)C(c1ccccc1F)Nc1ccccc1-3 (centres unmarked) [PPQ-205] = 61
• Cn1c(=O)c2c(-c3ccccc3)n3c(c2n(C)c1=O)C(c1cccc([N+](=O)[O-])c1)Nc1ccccc1-3 (centres unmarked) [PPQ-202] = 60
• COc1cccc(C2Nc3ccccc3-n3c(-c4ccccc4C)c4c(=O)n(C)c(=O)n(C)c4c32)c1 (centres unmarked) [PPQ-216] = 62
• Cc1ccc(C2Nc3cc(C)c(C)cc3-n3c(-c4ccccc4)c4c(=O)n(C)c(=O)n(C)c4c32)o1 (centres unmarked) [PPQ-104] = 84
• Cc1cc2c(cc1C)-n1c(-c3ccccc3)c3c(=O)n(C)c(=O)n(C)c3c1C(c1ccc(O)cc1)N2 (centres unmarked) [PPQ-203] = 80
• Cn1c(=O)c2c(-c3ccccc3)n3c(c2n(C)c1=O)C(c1ccc(O)cc1)Nc1ccccc1-3 (centres unmarked) [PPQ-207] = 64

###

Target: human wildtype CFTR (Homo sapiens, UniProt P13569)
Construct: expressed in transfected cells; host or cells: Fischer rat thyroid (FRT) cells
Experiment: Fluorescence platereader assay of CFTR-mediated iodide influx (YFP quenching) in FRT cells
Format: cell-based
Conditions: FRT, read-out: % inhibition at 25/5 μM (5 μM value); Table 1; 5 μM compound
Protocol: A. Cell lines and compounds—Fischer rat thyroid (FRT) cells co-expressing human wildtype CFTR and the halide indicator YFP-H148Q/1152L were generated as described (see, e.g., Ma et al., J. Clin. Invest. 110:1651-1658 (2002)). […] B. Compound Screening—Assays were performed using an automated screening platform (Beckman) equipped with FLUOStar fluorescence platereaders (BMG Lab Technologies, Offenburg, Germany) as described (see Ma et al., supra). […]
QUANTITY: inhibition at 5 µM

* Cc1cccc(C2Nc3ccccc3-n3c(-c4ccccc4C)c4c(=O)n(C)c(=O)n(C)c4c32)c1 (stereo not shown) | 46%
* Cc1ccccc1-c1c2c(=O)n(C)c(=O)n(C)c2c2n1-c1ccccc1NC2c1cccc([N+](=O)[O-])c1 (stereo not shown) | 64%
* COc1cccc(C2Nc3ccccc3-n3c(-c4ccccc4F)c4c(=O)n(C)c(=O)n(C)c4c32)c1 (stereo not shown) | 62%
* Cc1cccc(-c2c3c(=O)n(C)c(=O)n(C)c3c3n2-c2ccccc2NC3c2ccc(O)cc2)c1 (stereo not shown) | 71%
